tested on: SNB-19; assay: NCI tumour cell line growth inhibition, 48 h
Active and inactive are the calls of the source. Cut-off read from the data, not from the text of the source: active = GI50 up to about 1.1 µM and inactive = higher.
measurement type: GI50

>>> recorded_result("COc1ccc2nc3n(c2c1)C(c1c(F)cccc1Cl)SC3 (stereo unspecified)")
"> 100 µM (inactive)"
>>> recorded_result("CCOC(=O)c1cn2c(n1)sc1c(Cl)c(Cl)ccc12")
"25.3 µM (inactive)"
>>> recorded_result("O=C(C=P(c1ccccc1)(c1ccccc1)c1ccccc1)c1ccc(-c2ccc(F)cc2F)cc1")
"4.73 µM (inactive)"
>>> recorded_result("CC(C)c1cc2c(cc1S(=O)(=O)O)[C@@]1(C)CCC[C@@](C)(C(=O)O)C1CC2 (stereo partly specified)")
"> 100 µM (inactive)"
>>> recorded_result("N=NCC(=O)OC(COCc1ccccc1)COCc1ccccc1")
"> 100 µM (inactive)"
>>> recorded_result("CCC(O)c1ccc(/N=C/c2ccccc2O)cc1 (stereo unspecified)")
"> 100 µM (inactive)"
>>> recorded_result("Cc1nnc2n1N=C(c1cc(F)c(Cl)cc1Cl)/C(=C/c1ccc3c(c1)OCO3)S2")
"> 100 µM (inactive)"
>>> recorded_result("COc1ccc2nc3cc(Cl)ccc3c(NCCCN(Cc3cc(OC)c(OC)c(OC)c3)Cc3cc(OC)c(OC)c(OC)c3)c2c1")
"17.4 µM (inactive)"
>>> recorded_result("CCc1cc2c(oc3cc4ccccc4cc32)c(=O)[nH]1")
"> 10 µM (inactive)"
>>> recorded_result("COc1cc(/C=C/c2sc3ccccc3[n+]2C)ccc1N(C)C")
"12.9 µM (inactive)"
>>> recorded_result("CC(CC=O)Nc1nn2c(=O)c3ccccc3nc2s1 (stereo unspecified)")
"> 100 µM (inactive)"

----------
system: M14; assay: NCI tumour cell line growth inhibition, 48 h
Active and inactive are the calls of the source. Rule as the data show it: active = GI50 up to about 1.1 µM and inactive = higher.
Outcomes: Yes (active), No (inactive)

>>> label_class("CC(=O)OCC1OC(OC(C)=O)C(Nc2ncc(-c3ccc(C)cc3)s2)C(OC(C)=O)C1OC(C)=O (stereo not drawn)")
"No"
>>> label_class("O=C(CC(=O)N1N=C(n2ccc3ccccc32)CC1c1ccccc1)Nc1ccccc1Cl (stereo not drawn)")
"No"
>>> label_class("CCOC(=O)C1C(c2ccc(OC)cc2)c2c(nn(-c3ccccc3)c2O)CC1(O)OCC (stereo not drawn)")
"No"
>>> label_class("COc1cc(C2C(Cl)C(=O)N2NC(=O)c2ccc(NC(C)=O)cc2)ccc1O (stereo not drawn)")
"No"
>>> label_class("O=C(O)C1C2CCC(C2)C1c1ccccc1 (stereo not drawn)")
"No"
>>> label_class("CCOC(=O)c1ccc(/N=c2\\oc3ccc(OC)cc3cc2-c2nc3ccccc3[nH]2)cc1")
"No"
>>> label_class("CSC1=N/C(=C\\c2ccccc2)C(=O)N1CN1CCCCC1")
"No"
>>> label_class("O=C(/C=C/c1ccc(F)c(F)c1)OCCc1ccccc1")
"No"
>>> label_class("CCOC(=O)NC(=O)c1cn(C2CCCCC2)c(=O)n(C)c1=O")
"No"
>>> label_class("CC(O)CC(O)(C(F)(F)F)C(F)(F)F (stereo not drawn)")
"No"
>>> label_class("CCN(CC)CCCNc1nnc(C)c2[nH]c3ccccc3c12")
"No"
>>> label_class("O=C(/C=C/c1ccccc1)/C=C/c1ccccc1O")
"No"
>>> label_class("C/C(=N\\NC(=S)N(C)C)c1nc2cccnc2[nH]1")
"Yes"
>>> label_class("O=C(/C=C/c1cccc(Br)c1)N1CCN(CCOC(c2ccccc2)c2ccccc2)CC1")
"No"
>>> label_class("COc1cc(C(=O)C(CO)Oc2ccccc2OC)ccc1O (stereo not drawn)")
"No"
>>> label_class("CO/C=C/c1cc2c(cc1C(OC)OC)OCO2")
"No"
>>> label_class("Cc1cc(S(=O)(=O)[N-]/C(=N/S(=O)(=O)c2ccc(Cl)cc2)[n+]2ccc(N(C)C)cc2)c(SCC(=O)O)cc1Cl")
"No"
>>> label_class("CN(CCNC(=O)c1n[nH]c2c1ccc1ccccc12)CCNC(=O)c1n[nH]c2c1ccc1ccccc12")
"No"
>>> label_class("O=S(=O)(CC1=NC2C=CC=CC2N=C1)NCc1ccccc1 (stereo not drawn)")
"No"
>>> label_class("COC(=O)C(CCC1C=CCC1)/N=C\\c1ccccc1 (stereo not drawn)")
"No"
>>> label_class("CC1=NN(c2ccccc2)C(=O)C1=C1SCCCS1")
"No"
>>> label_class("CC1(C)OC(=O)C(C)(C)OC1=O")
"No"
>>> label_class("COc1ccc2nc3n(c2c1)C(c1c(F)cccc1Cl)SC3 (stereo not drawn)")
"No"

----------
test system: IGROV-1; assay: NCI tumour cell line growth inhibition, 48 h
The source made the active and inactive calls. No stated cut-off is given here; in the data, active = GI50 up to about 1.1 µM and inactive = higher.
Outcomes: yes for active, no for inactive

>>> label_class("C#Cc1c(C)c(/C=C/C(C)=C/C(=O)OC)n(C)c1C")
"no"
>>> label_class("O=c1[nH]c(Cc2ccccc2)nc2c1sc1nc3ccccc3n12")
"no"
>>> label_class("CCN(CC)CCSc1nc(-c2c[nH]c3nc(C)ccc3c2=O)n[nH]1")
"no"
>>> label_class("COC(=O)C1=C(c2cc(OC)c(OC)c(OC)c2)OC(c2cc(OC)c(OC)c(OC)c2)C1COC(C)=O (stereo not drawn)")
"no"
>>> label_class("CC1OC2OC3C(OCC(O)C3O)OC(=O)[C@]34CCC(C)(C)CC3C3=CCC5[C@@]6(C)C[C@H](O)[C@H](OC7OC(CO)C(O)C(O)C7OC7OCC(OC(=O)CC(C)(O)CC(=O)OC1C(OC1OC(CO)C(O)C(O)C1O)C2O)C(O)C7O)[C@@](C)(CO)C6CC[C@@]5(C)[C@]3(C)CC4 (stereo partly drawn)")
"no"
>>> label_class("CC(C)C1CC[C@@H](C)C[C@@]1(O)CC(N)=O (stereo partly drawn)")
"no"
>>> label_class("CNc1cc2c(c3ccccc13)C(CCl)CN2C(=O)c1cc2cc(OC)c(OC)c(OC)c2[nH]1 (stereo not drawn)")
"yes"
>>> label_class("C/C(=N/NC(=S)N(C)CCc1ccccn1)c1cnccn1")
"yes"
>>> label_class("COc1cc(/C=C/c2sc3ccccc3[n+]2C)ccc1N(C)C")
"no"
>>> label_class("Cc1cnc2[nH]c(-c3ccccc3)cc(=O)c2c1")
"yes"
>>> label_class("CN(C)c1ccccc1CC(c1c[nH]c2ccccc12)c1c[nH]c2ccccc12")
"no"
>>> label_class("Nc1nncc2c1ccn2C1OC(CO)C(O)C1O (stereo not drawn)")
"no"
>>> label_class("CCc1cccc(CC)c1NC(=O)/C(Cl)=C(/Cl)C(=O)O")
"no"
>>> label_class("CC(C)N1CN(C(C(=O)N[C@@H]2C(=O)N3C2SC(C)(C)C3C(=O)O)c2ccc(O)cc2)CSC1=S (stereo partly drawn)")
"no"
>>> label_class("CC(C)OP(=O)(OC(C)C)C(C(C)C)N(C)/C(N)=N\\C1=NC(C(F)(F)F)(C(F)(F)F)N=C(C(C(F)(F)F)C(F)(F)F)O1 (stereo not drawn)")
"no"
>>> label_class("CCOC(=O)NC(C(=O)OCC)(N1CCN(c2cc3c(cc2F)c(=O)c(C(=O)O)cn3CC)CC1)C(F)(F)F (stereo not drawn)")
"no"
>>> label_class("CC1=C(C(=O)Nc2cccc(C(F)(F)F)c2)C(c2ccccc2F)C(C(=O)Nc2cccc(C(F)(F)F)c2)=C(C)N1")
"no"
>>> label_class("C#CC(O)/C=C/C(O)CCCC(O)CC#CC(O)C#CCCCCC(O)/C=C/CCCC(O)/C=C/CCCCCCCCCCCCCC(O)C(O)C#CC(=O)O (stereo not drawn)")
"no"

----------
tested on: RPMI-8226; test: NCI tumour cell line growth inhibition, 48 h
The source made the active and inactive calls. No stated cut-off is given here; in the data, active = GI50 up to about 1.1 µM and inactive = higher.
Outcomes: active, inactive

>>> label_class("COc1cc2c3c(c1)CCCN3CCC2")
"inactive"
>>> label_class("[O-]c1c2cc(-[n+]3c(-c4ccccc4)cc(-c4ccccc4)cc3-c3ccccc3)cc1CO[C@@H](c1ccccc1)[C@H](c1ccccc1)OCCOCCO[C@@H](c1ccccc1)[C@H](c1ccccc1)OC2")
"active"
>>> label_class("CC(C)OP(=O)(OC(C)C)/C(=N/Nc1ccc([N+](=O)[O-])cc1)Nc1ccccc1")
"inactive"
>>> label_class("CCC(O)c1ccc(/N=C/c2ccccc2O)cc1 (configuration not stated)")
"inactive"
>>> label_class("c1ccc2c(c1)c1ccccc1n2Cn1c2ccccc2c2ccccc21")
"inactive"
>>> label_class("COC(=O)C(CCC1C=CCC1)/N=C\\c1ccccc1 (configuration not stated)")
"inactive"
>>> label_class("CC1(C)OC(=O)C(C)(C)OC1=O")
"inactive"

----------
system: HL-60; assay: NCI tumour cell line growth inhibition, 48 h
Calls of active or inactive are those of the source. Rule as the data show it: active = GI50 up to about 1.1 µM and inactive = higher.
measurement type: GI50

>>> recorded_result("CC(C)OCC(O)COc1cc(=O)oc2ccccc12 (stereo unspecified)")
"> 100 µM (inactive)"
>>> recorded_result("N=C(N)c1csc([C@@H]2O[C@H](CO)[C@@H](O)[C@H]2O)n1")
"> 100 µM (inactive)"
>>> recorded_result("CCCCCNC(=O)OC1CCn2c1nc1c2C(=O)C(C)=C(N2CC2)C1=O (stereo unspecified)")
"6.05 µM (inactive)"
>>> recorded_result("Cc1c(C)c(C)n(C2OC(CO)C(O)C(O)C2O)c(=S)c1C#N (stereo unspecified)")
"> 100 µM (inactive)"
>>> recorded_result("OCC1OC(n2cnc3c(Cl)nc(Nc4ccc(Cl)c(Cl)c4)nc32)CC1O (stereo unspecified)")
"7.05 µM (inactive)"
>>> recorded_result("COC(=O)[C@@H]1[C@H](O)[C@H](C)[C@H](O)[C@H](C)/C=C\\C=C(\\C)C(=O)Nc2c(C)c(OC(C)=O)c3c(c2O)C(=O)C(C)=C2OCOC(=C23)/C(C)=C/[C@@H](O)[C@H](O)[C@@H](C)[C@H]1OC(C)=O")
"5.36 µM (inactive)"
>>> recorded_result("Nc1ccc(C(=O)NN2C(=O)C(Cl)C2c2cccc([N+](=O)[O-])c2)cc1 (stereo unspecified)")
"20.7 µM (inactive)"
>>> recorded_result("CCc1cc2c(oc3cc4ccccc4cc32)c(=O)[nH]1")
"> 10 µM (inactive)"
>>> recorded_result("c1ccc(CN2CCCN3CCN(CCCN(Cc4ccccc4)CC3)CC2)cc1")
"24.7 µM (inactive)"
>>> recorded_result("COc1cccc2c(=O)oc(-c3ccccc3C)nc12")
"32 µM (inactive)"
>>> recorded_result("Cc1nnc2n1N=C(c1cc(F)c(Cl)cc1Cl)/C(=C/c1ccc3c(c1)OCO3)S2")
"40.4 µM (inactive)"
>>> recorded_result("CC1=NC2(C(=O)O)C3(C(=O)O)N=C(C)OC3(C(F)(F)F)C2(C(F)(F)F)O1 (stereo unspecified)")
"> 100 µM (inactive)"
>>> recorded_result("N#Cc1cc(-c2nc3ccc(F)cc3s2)ccc1N")
"> 100 µM (inactive)"
>>> recorded_result("COc1ccccc1Cn1nc(OC)c2cc([N+](=O)[O-])ccc21")
"> 100 µM (inactive)"
>>> recorded_result("COC(=O)c1ccc(Cc2ccc(C(=O)OC)o2)o1")
"> 378 µM (inactive)"
>>> recorded_result("[O-][n+]1c2ccccc2[n+]([O-])c2cc(Br)ccc21")
"1.31 µM (inactive)"
>>> recorded_result("OCc1cc2ccncc2c2c1[nH]c1ccccc12")
"4.84 µM (inactive)"
>>> recorded_result("O=S(=O)(CC1=NC2C=CC=CC2N=C1)NCc1ccccc1 (stereo unspecified)")
"69.5 µM (inactive)"
>>> recorded_result("C=CCOC(=O)N1[C@H]2C#C/C=C\\C#C[C@]3(O)C(=O)C[C@H](C)[C@]24O[C@]43C2=CC(=O)C=CC21OC (stereo partly specified)")
"30.8 µM (inactive)"
>>> recorded_result("COC(=O)C1=C(c2cc(OC)c(OC)c(OC)c2)OC(c2cc(OC)c(OC)c(OC)c2)C1COC(C)=O (stereo unspecified)")
"10.3 µM (inactive)"
>>> recorded_result("COc1cc2c(c(O)c1OC)C(=O)C(Cc1ccc(O)cc1)CO2 (stereo unspecified)")
"29.2 µM (inactive)"
